# assayOverview: Inhibition of Mycobacterium smegmatis DprE1 expressed in Escherichia coli Rosetta cells using farnesyl-phosphoryl-beta-D-ribofuranose as substrate by fluorescence analysis
# Set-up: species or system Mycolicibacterium smegmatis
pIC50: −log10 of the molar value.
Parameter threshold = 6. Response is satisfied when pIC50 meets or exceeds it, else not satisfied.

>  <substanceSmiles>
COc1nc2c(cc1CNCc1cccc(C(F)(F)F)c1)c(C)nn2-c1ccccc1

>  <assignedCategory>
not satisfied

$$$$
>  <substanceSmiles>
Cc1ccc(C(F)(F)F)cc1CNCc1cc2c(C(C)C)nn(-c3ccccc3)c2[nH]c1=O

>  <assignedCategory>
satisfied

$$$$
>  <substanceSmiles>
Cc1ccc(-n2nc(C)c3cc(CNCc4cccc(C(F)(F)F)c4)c(=O)[nH]c32)cc1

>  <assignedCategory>
satisfied

$$$$
>  <substanceSmiles>
O=c1[nH]c2c(cc1CNCc1cccc(C(F)(F)F)c1F)c(C1CC1)nn2-c1ccccc1

>  <assignedCategory>
satisfied

$$$$
>  <substanceSmiles>
O=c1[nH]c2c(cc1CNCc1cc(C(F)(F)F)ccc1F)c(C1CC1)nn2-c1ccccc1

>  <assignedCategory>
satisfied

$$$$
>  <substanceSmiles>
O=c1[nH]c2c(cc1CNCc1cccc(C(F)(F)F)c1)c(C1CC1)nn2-c1ccccc1

>  <assignedCategory>
satisfied

$$$$
>  <substanceSmiles>
Cc1nn(-c2ccccc2)c2[nH]c(=O)c(CN3CCc4ccc(C(F)(F)F)cc4C3)cc12

>  <assignedCategory>
not satisfied

$$$$
>  <substanceSmiles>
Cc1nn(-c2ccccc2)c2c1cc(CNCc1cccc(C(F)(F)F)c1)c(=O)n2C

>  <assignedCategory>
not satisfied

$$$$
>  <substanceSmiles>
Cc1cccc(CNCc2cc3c(C)nn(-c4ccccc4)c3[nH]c2=O)c1

>  <assignedCategory>
not satisfied

$$$$
>  <substanceSmiles>
Cc1ccc(C(F)(F)F)cc1CNCc1cc2c(C3CC3)nn(-c3ccccc3)c2[nH]c1=O

>  <assignedCategory>
satisfied

$$$$
>  <substanceSmiles>
Cc1nn(-c2ccccc2)c2[nH]c(=O)c(CN(C)Cc3cccc(C(F)(F)F)c3)cc12

>  <assignedCategory>
satisfied

$$$$
